experiment.notes: Plasma levels of pro-drug and desired COX-2 inhibitor after i.v. dosing in Sprague-Dawley rats
Format: in vivo
measurement.setup: rat, iv; plasma, 2 mg/kg i.v. dose of pro-drug, saline solution of the salt form, Sprague-Dawley rats, value @ 30 min; read-out: Levels of Pro-Drug @ 0.5 hr
quantity.kind: concentration at 30 min (nM)
Field: numeric (nM). Do not append units.

// lookup concentration at 30 min for CC[C@]1(C)OC2(OCC(COP(=O)([O-])OCC[N+](C)(C)C)O2)C(OC(C)C)=C1c1ccc(S(C)(=O)=O)cc1 (stereo in doubt)
200

---

What solubility was measured for each of the following?
experiment.notes: Solubility in deionized water @ 25° C.
Assay type: physicochemical
measurement.setup: deionized water, 25 °C, water, read-out: Solubility

// lookup solubility for CC[C@]1(C)OC2(OCC(CO)O2)C(OC(C)C)=C1c1ccc(S(C)(=O)=O)cc1 (stereo partly drawn)
< 1000 µg/mL

// lookup solubility for CC[C@]1(C)O/C(=N\OCC(=O)[O-])C(OC(C)C)=C1c1ccc(S(C)(=O)=O)cc1.[Na+]
> 10000 µg/mL

// lookup solubility for CC[C@]1(C)O/C(=N\[C@@H](CO)C(=O)[O-])C(OC(C)C)=C1c1ccc(S(C)(=O)=O)cc1.[K+]
> 10000 µg/mL

// lookup solubility for CC[C@@]1(C)OC2(OC[C@@H]([C@H]3OC(=O)C(O)=C3[O-])O2)C(OC(C)C)=C1c1ccc(S(C)(=O)=O)cc1.[Na+] (stereo partly drawn)
> 10000 µg/mL

// lookup solubility for CC[C@]1(C)OC2(OCC(COP(=O)([O-])OCC[N+](C)(C)C)O2)C(OC(C)C)=C1c1ccc(S(C)(=O)=O)cc1 (stereo in doubt)
> 10000 µg/mL

// lookup solubility for CC[C@]1(C)OC2(OCC(COC(=O)CCC(=O)[O-])O2)C(OC(C)C)=C1c1ccc(S(C)(=O)=O)cc1.[Na+] (stereo partly drawn)
2000 µg/mL
